Measurement Target: 3-pTza peptide (Biotin-AminocaproicAcid-A.G.A.G.3-pTza.A.G.A.G)
Test Method Notes: BLI; Octet RED96e; biotinylated peptides captured on streptavidin biosensors at 20 nM; Fab in solution, 20-200 nM; 1x HBS-T, 1% BSA
Label rule, in plain words: kon of 200000 M⁻¹ s⁻¹ and up is fulfilled, under 200000 M⁻¹ s⁻¹ is not fulfilled.

A selection of reference data follows.
hSC44.20 Fab (Fab, V domains shown) VH: EVQLVESGGGLVQPGGSLRLSCTASGFSIDSYGFSWVRQAPGKGLEHIGYLTAGGRAFYASWAKSRSTITRNTNENTVTLKMNSLRAEDTAVYYCAKLGTGSRFAIWGQGTLVTVSS VL: DIQMTQSPSSLSASVGDRVTITCRASQSVWRNKNVAWYQQKPGKAPKRLIYAIASLYSGVPSRFSGSGSGTDFTLTISSLQPEDFATYYCVGHYGSENDAYYAFGQGTKVEIK ... fulfilled
hSC44.20.N32Y^L Fab (Fab, V domains shown) VH: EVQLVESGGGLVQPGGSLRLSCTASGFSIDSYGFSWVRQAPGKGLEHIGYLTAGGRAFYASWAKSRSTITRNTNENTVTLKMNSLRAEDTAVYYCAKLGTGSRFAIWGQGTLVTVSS VL: DIQMTQSPSSLSASVGDRVTITCRASQSVWRNKYVAWYQQKPGKAPKRLIYAIASLYSGVPSRFSGSGSGTDFTLTISSLQPEDFATYYCVGHYGSENDAYYAFGQGTKVEIK ... fulfilled

Proceed to the following item.
Entry hSC44 Fab (Fab, V domains shown) VH: EVQLVESGGGLVQPGGSLRLSCTASGFSIDSYGFSWVRQAPGKGLEHIGYLTAGGRAFYASWAKSRSTITRNTNENTVTLKMNSLRAEDTAVYYCAKLGSGNPVAIWGQGTLVTVSS VL: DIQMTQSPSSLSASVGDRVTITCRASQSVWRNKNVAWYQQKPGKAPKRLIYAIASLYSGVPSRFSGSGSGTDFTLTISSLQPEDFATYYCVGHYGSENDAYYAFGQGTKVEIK : is its kon no less than 200000 M⁻¹ s⁻¹?
not fulfilled
